Hey, just so you know, these numbers are from a melting point compilation (Tetko et al.).

ENDPOINT_LABEL: melting point

MOLECULE	melting point
CC(C)CCCC(C)C1CCC2C3CC=C4CC(NCCCCC(=O)NCCC(=O)NCCC(=O)NCCCCC(C(=O)O)N(CC(=O)O)CC(=O)O)CCC4(C)C3CCC12C (stereo unspecified)	101 to 103 °C

Dear colleague, could you please provide melting point for the molecules listed below?
1. CCN(C(=O)NC)C1C(Cl)=C(OC2=C(Cl)C(N(CC)C(=O)NC)C(c3ccccc3C(F)(F)F)([N+](=O)[O-])C=C2)C=CC1(c1ccccc1C(F)(F)F)[N+](=O)[O-] (stereo unspecified)
2. CCOC(=O)c1cc2cc(OC)cc(NS(=O)(=O)c3cccs3)c2[nH]1

Solution:
["128 °C", "158 to 159 °C"]

Dear colleague, could you please provide melting point for the molecules listed below?
1. CCC(CC)NC(=O)c1ccc(-c2scc(-c3ccccc3Cl)c2CC(=O)OC)cc1
2. CCCCCCCCCCC1(CCCCCCCCCC)c2cc(-c3ccc4c(c3)C(CC)(CC)c3cc(-c5nc6ccccc6s5)ccc3-4)ccc2-c2ccc(-c3ccc4c(c3)C(CC)(CC)c3cc(N(c5ccccc5)c5ccccc5)ccc3-4)cc21
3. CC(C)[C@H](NC(=O)N1CCN(c2ccccc2)CC1)C(=O)N[C@@H](Cc1ccccc1)[C@@H](O)[C@H](O)[C@H](Cc1ccccc1)NC(=O)[C@@H](NC(=O)N1CCN(c2ccccc2)CC1)C(C)C

Solution:
57 to 59 °C
228 to 229 °C
165 to 166 °C

----------
Please provide measured melting point for the entries that follow.

Known results for molecules:
MOLECULE	READOUT_VALUE
C[Si](C)(C)CCS(=O)(=O)N=S(=O)(c1ccc(N)cc1)C1CC1 (racemic)	137 to 138 °C
CCCCNC1=CCC(C)n2c1ncc(C(=O)O)c2=O (stereo not given)	135 to 137 °C
C=C(C)C(=O)OCCCCOC(=O)C(=C)C	-117 °C

Dear colleague, could you please provide melting point for the molecules listed below?
1. COc1cc2c3c(ccc4c5ccc6c7c(cc(OC)c(c1c34)c75)-c1ccccc1C6C#C[Si](C(C)C)(C(C)C)C(C)C)C(C#C[Si](C(C)C)(C(C)C)C(C)C)c1ccccc1-2 (stereo not given)
2. CC(C)(C)c1cc(Cc2cc(C(C)(C)C)cc(-n3nc4ccc(S(=O)(=O)c5ccccc5)cc4n3)c2O)c(O)c(-n2nc3ccc(S(=O)(=O)c4ccccc4)cc3n2)c1
3. O=C(OI(OC(=O)C(F)(F)F)C(F)(F)C(F)(F)C(F)(F)C(F)(F)C(F)(F)C(F)(F)C(F)(F)C(F)(F)C(F)(F)C(F)(F)F)C(F)(F)F
4. CC(=O)OC(CN1C(=O)C2(CC(C)(C)N(C(C)=O)C(C)(C)C2)OC12CCCCCCCCCCC2)CN1C(=O)C2(CC(C)(C)N(C(C)=O)C(C)(C)C2)OC12CCCCCCCCCCC2
5. CCCCCCCCCCCCCCCC(=O)OC(CCCCCCCCCCCCCC)C(=O)N[C@H](C(=O)N[C@@H](CCC(=O)OCc1ccccc1)C(=O)OCc1ccccc1)C(C)C (stereo not given in full)

Solution:
1. 295 to 298 °C
2. 224 to 234 °C
3. 83 to 88 °C
4. 122 °C
5. 65 °C

Dear colleague, could you please provide melting point for the molecules listed below?
1. CCCCCCCCCCCCCCCCCCN(CCCCCCCCCCCCCCCCCC)C(=O)c1cc(NS(=O)(=O)c2ccc(S(=O)(=O)CCC#N)cc2)c2ccccc2c1O
2. CC1CNc2c(cccc2S(=O)(=O)NC(CCCc2cn(C(c3ccccc3)(c3ccccc3)c3ccccc3)cn2)C(=O)N2CCC(C)CC2C(=O)NOCc2ccccc2)C1 (stereo not given)
3. CC(C)(C)OC(=O)NCc1ccc(CNC(=O)N2CCN(C(=O)CN3CCC(=O)N(CC(=O)N4CCN(C(=O)NCc5ccc(CNC(=O)OC(C)(C)C)cc5)CC4)CCC3=O)CC2)cc1
4. CC(C)[C@@H](NC(=O)[C@@H](CSC(c1ccccc1)(c1ccccc1)c1ccccc1)NC(=O)[C@@H](C)NC(=O)C[C@H](O)/C=C/CCSC(c1ccccc1)(c1ccccc1)c1ccccc1)C(=O)NCC(=O)O
5. O=C(Cc1ccccc1)Oc1n[nH]c(=O)c2nc3cc(Cl)ccc3c(O)c12
6. CC(c1cc(C(C)(C)C)cc(C(C)(C)C)c1O)c1cc(C(C)(C)C)cc(C(C)(C)C)c1Op1oc2c(C(C)(C)C)cc(C(C)(C)C)cc2c2cc(C(C)(C)C)cc(C(C)(C)C)c2o1 (stereo not given)
7. Cc1ccc(-c2c(-c3ccc(S(N)(=O)=O)cc3)[nH]c3ccccc23)cc1C
8. CCOP(=O)(OCC)Oc1ccc([N+](=O)[O-])cc1

Solution:
85 to 86 °C
90 to 100 °C
156 to 160 °C
191 to 193 °C
278 to 282 °C
273 to 277 °C
251 to 253 °C
35 to 38 °C

----------
Starred links: 1 amine or outer side, 2 acyl side, 3 side chain; linkers in the order of their positions; H or OH if unused. Positions of bridges follow the written chain, without caps; N, C: chain ends. Non-standard residues stand in square brackets, D forms with d. Residues, ends and D or L forms follow the SMILES beside them. X7 = CCC(C)C(N[*:1])C(O)CC(=O)OC(C(C)C)C(O)C(C)C(=O)[*:2]; NMeY = CN[CH](Cc1ccc(O)cc1)C(=O)O; NMeL = CN[CH](CC(C)C)C(=O)O
Please provide measured melting point for the entries that follow.

Known results for compounds:
COMPOUND	READOUT_VALUE
CN(C)c1ccccn1	0 °C
CCC(C)C1NC(=O)C(NC(=O)C(CC(C)C)NC)C(C)OC(=O)C(Cc2ccc(OC)cc2)N(C)C(=O)C2CCCN2C(=O)C(CC(C)C)NC(=O)C(C)C(O)C(C(C)C)OC(=O)CC1O (stereo not drawn) (H-[NMeL]T[X7]LP[NMeY](Me); ester 2-C; configuration not given here)	124 to 127 °C

Now for the compound whose melting point we want.
Exercise: Name the recorded melting point of the item "CCCCCCCCN=C(O)c1c(Sc2ccc([N+](=O)[O-])cc2)c(Sc2ccc([N+](=O)[O-])cc2)c(Sc2ccc([N+](=O)[O-])cc2)c(Sc2ccc([N+](=O)[O-])cc2)c1C(=O)O" in your answer.
Solution: 202 to 204 °C

----------
Please provide measured melting point for the entries that follow.

Known results for molecules:
MOLECULE	ENDPOINT_LABEL	READOUT_VALUE
Cc1ccc2c(c1)CC(=O)N2c1c(F)cc(F)cc1Cl	melting point	137 to 140 °C
CC(C)[C@H](NC(=O)N(C)Cc1ccccn1)C(=O)N[C@@H](Cc1ccccc1)[C@H](O)[C@@H](O)[C@H](Cc1ccccc1)NC(=O)[C@@H](NC(=O)N(C)Cc1cscn1)C(C)C	melting point	84 to 88 °C
CCCCCCC1(CCCCCC)c2cc(-c3ccc4c(c3)nc(N)c3nc(COCC)n(CC(C)(C)O)c34)ccc2-c2ccc(-c3ccc4c(c3)nc(N)c3nc(COCC)n(CC(C)(C)O)c34)cc21	melting point	261 to 265 °C

Dear colleague, could you please provide melting point for the molecules listed below?
1. CC1(C)CC(C(O)CNc2nc(NCCCCCCNc3nc(NCC(O)C4CC(C)(C)NC(C)(C)C4)nc(NCC(O)C4CC(C)(C)NC(C)(C)C4)n3)nc(NCC(O)C3CC(C)(C)NC(C)(C)C3)n2)CC(C)(C)N1 (stereo unspecified)
2. Cc1cc(Cn2nnn(-c3cc(C(F)(F)F)cc(C(F)(F)F)c3)c2=O)ccc1N(C(=O)c1c(I)cccc1C(N)=O)C(C)(C)CS(C)=O (stereo unspecified)
3. CC(Br)C(=O)N=S(C)(=O)c1ccccc1 (stereo unspecified)

Solution:
165 to 168 °C
165 to 171 °C
109 to 110 °C

----------
ENDPOINT_LABEL: melting point

Dear colleague, could you please provide melting point for the compounds listed below?
1. FC(F)(F)C(F)(F)C(F)(F)C(F)(F)C(F)(F)C(F)(F)C(F)(F)C(F)(F)CCC1(CCC(F)(F)C(F)(F)C(F)(F)C(F)(F)C(F)(F)C(F)(F)C(F)(F)C(F)(F)F)c2cc(Br)ccc2-c2ccc(Br)cc21
2. CCC(C)C1NC(=O)C(NC(=O)C(CC(C)C)N(C)C(C)=O)C(C)OC(=O)C(Cc2ccc(OC)cc2)N(C)C(=O)C2CCCN2C(=O)C(CC(C)C)NC(=O)C(C)C(=O)C(C(C)C)OC(=O)CC1OC(C)=O (stereo not drawn)
3. CCCCCCCCCCOc1cc(OCCCCCCCCCC)cc(N(CC(=O)OCOC(C)=O)CC(=O)OCOC(C)=O)c1

Solution:
["130 to 131 °C", "130 to 133 °C", "37 to 39 °C"]
